FYI, the data here is from ChEMBL document CHEMBL1121668.

Please go through the items and note down their LD50.
experiment: Lethal dose is determined in mice (iv); type: toxicity, organism-based; conditions: mouse, in vivo
Answer format: numeric, mg/kg implied, no suffix.

LD50 measured on CCN(CC)CC(=O)Nc1ccccc1Sc1ccc(Cl)cc1 = 55

LD50 measured on CN(C(=O)CN1CCCCC1)c1ccc(Sc2ccccc2)cc1 = 25

LD50 measured on CC(=O)Oc1ccccc1C(=O)N(C)c1ccc(Sc2ccccc2)cc1 = 1000

LD50 measured on CCN(CC)CC(=O)Nc1ccc(Sc2ccccc2)cc1 = 45

LD50 measured on CCN(CC)CC(=O)Nc1ccc(Sc2ccc(Cl)cc2)cc1 = 45

LD50 measured on CCN(CC)CC(=O)N(C)c1ccc(Sc2ccc(Cl)cc2)cc1 = 45
